Each record here notes measured pEC50.
system-tested: human APJ receptor (Homo sapiens, UniProt P35414)
Construct: expressed in transfected cells; host or cells: HEK293
Sequence (P35414 whole entry): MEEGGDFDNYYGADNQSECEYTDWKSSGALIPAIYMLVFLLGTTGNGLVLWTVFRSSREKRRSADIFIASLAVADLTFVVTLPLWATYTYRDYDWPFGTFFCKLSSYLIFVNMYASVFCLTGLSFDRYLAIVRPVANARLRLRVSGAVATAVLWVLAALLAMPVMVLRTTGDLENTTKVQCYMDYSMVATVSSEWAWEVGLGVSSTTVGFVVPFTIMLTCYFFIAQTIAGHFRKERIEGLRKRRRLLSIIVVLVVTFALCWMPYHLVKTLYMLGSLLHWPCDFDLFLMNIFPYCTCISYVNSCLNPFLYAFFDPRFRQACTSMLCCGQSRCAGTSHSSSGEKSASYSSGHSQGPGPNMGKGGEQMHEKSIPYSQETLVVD
assay-name: Intracellular cAMP accumulation assay (APJ hcAMP, HTRF)
Format: cell-based
test-settings: HEK293 cells stably expressing human APJ receptor; inhibition of forskolin-mediated cAMP production; Table 1; read-out: hAPJ cAMP EC50 Potency range
Experimental: Intracellular cAMP Accumulation Assay HEK293 cells stably expressing human APJ receptor were used to assess the activity of compounds. Cultured cells were detached and resuspended in the cAMP Homogeneous Time-Resolved Fluorescence (HTRF) assay buffer (Cisbio cat; #62AM4PEJ). […] The fluorescence emission ratio was measured using fluorometer. […] The biological activity of the exemplified compounds of this invention determined by the assay described above is shown at the end of each example.
pEC50: −log10 of the molar value.

{"columns": ["molecule", "pEC50"],
 "data": [
  ["CCCCc1nc(O)c(S(=O)(=O)c2ccc(-c3ccccc3C(=O)N(C)C)cc2)c(O)c1N1CCCc2ccccc21", "7.00 to 8.00"],
  ["CCN(c1ccccc1)c1c(-c2ccn(C)n2)nc(O)c(S(=O)(=O)c2ccc(-c3ccncc3C)cc2)c1O", "8.00 to 11.00"],
  ["CCCCc1nc(O)c(S(=O)(=O)c2ccc(-c3ccnc(F)c3C)cc2)c(O)c1N1c2ccccc2CCC1C (stereo not drawn)", "8.00 to 11.00"]
]}

---

Known EC50 of a selection of molecules
system-tested: human APJ receptor (Homo sapiens, UniProt P35414)
Construct: expressed in transfected cells; host or cells: HEK293
assay-name: Intracellular cAMP accumulation assay (APJ hcAMP, HTRF)
Assay type: cell-based
test-settings: HEK293 cells stably expressing human APJ receptor; inhibition of forskolin-mediated cAMP production; Table 1; read-out: hAPJ cAMP EC50 Potency range

{"columns": ["molecule", "EC50"],
 "data": [
  ["CCN(c1ccccc1)c1c(-c2cnc(C)s2)nc(O)c(S(=O)(=O)c2ccc(-c3cccc(C(=O)NC)c3)cc2)c1O", "0.01 to 10 nM"],
  ["CCN(c1cccc(C#N)c1)c1c(-c2ccn(C)n2)nc(O)c(S(=O)(=O)c2ccc(-c3ccccc3C(=O)NC)cc2)c1O", "0.01 to 10 nM"],
  ["CCCCc1nc(O)c(S(=O)(=O)c2ccc(-n3cc(C)ccc3=O)cc2)c(O)c1N(C)c1cccc(C)c1", "10 to 100 nM"],
  ["CCCCc1nc(O)c(S(=O)(=O)c2ccc(-c3ccncc3C)cc2)c(O)c1N(C)c1cccc(Cl)c1", "0.01 to 10 nM"],
  ["CCCCc1nc(O)c(S(=O)(=O)c2ccc(Br)cc2)c(O)c1N(CC)c1ccccc1", "10 to 100 nM"],
  ["CCCCc1nc(O)c(S(=O)(=O)c2ccc(-c3cccnc3C)cc2)c(O)c1N1CCC(C)c2ccccc21 (centres unmarked)", "10 to 100 nM"],
  ["CCN(c1ccccc1)c1c(-c2ccn(C)n2)nc(O)c(S(=O)(=O)c2ccc(-c3ccccc3C(N)=O)cc2)c1O", "0.01 to 10 nM"],
  ["CCCCc1nc(O)c(S(=O)(=O)c2ccc(-c3ccccc3C(N)=O)cc2)c(O)c1N(CC)c1ccccc1", "0.01 to 10 nM"],
  ["CC(C)N(c1ccccc1)c1c(-c2ccn(C)n2)nc(O)c(S(=O)(=O)c2ccc(-c3ccccc3C(=O)N(C)C)cc2)c1O", "0.01 to 10 nM"],
  ["CCCCc1nc(O)c(S(=O)(=O)c2ccc(-c3cccnc3C)cc2)c(O)c1N(C)c1cccc(C#N)c1", "0.01 to 10 nM"],
  ["CCCCc1nc(O)c(S(=O)(=O)c2ccc(-c3ccccc3C(N)=O)cc2)c(O)c1N(CC)c1cccc(C#N)c1", "0.01 to 10 nM"],
  ["CCCCc1nc(O)c(S(=O)(=O)c2ccc(-c3ccccc3COC)cc2)c(O)c1N(CC)c1ccccc1", "0.01 to 10 nM"],
  ["CCN(c1ccccc1)c1c(CC2CC2)nc(O)c(S(=O)(=O)c2ccc(-c3cccnc3C)cc2)c1O", "0.01 to 10 nM"],
  ["CCN(c1cccc(C#N)c1)c1c(-c2ccn(C)n2)nc(O)c(S(=O)(=O)c2ccc(-c3ccnc(F)c3C)cc2)c1O", "0.01 to 10 nM"]
]}
